Please consider the recorded AC50 for Cytochrome P450 2C9 (Homo sapiens) in what follows.

-- ask Write down the reported AC50 of `Cc1nn(-c2ccc(F)cc2)c(Cl)c1/C=C(\CCC(=O)O)c1nc2ccccc2s1` , test system: Cytochrome P450 2C9 (Homo sapiens).
Sequence (P11712 whole entry): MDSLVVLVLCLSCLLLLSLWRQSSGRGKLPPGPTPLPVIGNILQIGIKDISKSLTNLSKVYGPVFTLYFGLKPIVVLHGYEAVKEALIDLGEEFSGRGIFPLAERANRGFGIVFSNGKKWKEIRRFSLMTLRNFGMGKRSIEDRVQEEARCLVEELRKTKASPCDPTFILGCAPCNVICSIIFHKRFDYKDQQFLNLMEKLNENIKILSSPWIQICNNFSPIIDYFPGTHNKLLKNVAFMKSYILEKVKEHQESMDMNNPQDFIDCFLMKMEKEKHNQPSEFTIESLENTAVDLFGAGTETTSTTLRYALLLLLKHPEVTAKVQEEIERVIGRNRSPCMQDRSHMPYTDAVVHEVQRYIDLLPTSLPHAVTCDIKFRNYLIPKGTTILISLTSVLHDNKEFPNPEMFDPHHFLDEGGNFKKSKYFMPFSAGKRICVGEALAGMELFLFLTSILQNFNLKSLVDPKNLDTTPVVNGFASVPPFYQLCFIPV
-- reply 39.8 µM (inconclusive)

----------
- system-name: Apoptotic protease-activating factor 1 (Homo sapiens, UniProt O14727)
- Sequence (O14727 whole entry): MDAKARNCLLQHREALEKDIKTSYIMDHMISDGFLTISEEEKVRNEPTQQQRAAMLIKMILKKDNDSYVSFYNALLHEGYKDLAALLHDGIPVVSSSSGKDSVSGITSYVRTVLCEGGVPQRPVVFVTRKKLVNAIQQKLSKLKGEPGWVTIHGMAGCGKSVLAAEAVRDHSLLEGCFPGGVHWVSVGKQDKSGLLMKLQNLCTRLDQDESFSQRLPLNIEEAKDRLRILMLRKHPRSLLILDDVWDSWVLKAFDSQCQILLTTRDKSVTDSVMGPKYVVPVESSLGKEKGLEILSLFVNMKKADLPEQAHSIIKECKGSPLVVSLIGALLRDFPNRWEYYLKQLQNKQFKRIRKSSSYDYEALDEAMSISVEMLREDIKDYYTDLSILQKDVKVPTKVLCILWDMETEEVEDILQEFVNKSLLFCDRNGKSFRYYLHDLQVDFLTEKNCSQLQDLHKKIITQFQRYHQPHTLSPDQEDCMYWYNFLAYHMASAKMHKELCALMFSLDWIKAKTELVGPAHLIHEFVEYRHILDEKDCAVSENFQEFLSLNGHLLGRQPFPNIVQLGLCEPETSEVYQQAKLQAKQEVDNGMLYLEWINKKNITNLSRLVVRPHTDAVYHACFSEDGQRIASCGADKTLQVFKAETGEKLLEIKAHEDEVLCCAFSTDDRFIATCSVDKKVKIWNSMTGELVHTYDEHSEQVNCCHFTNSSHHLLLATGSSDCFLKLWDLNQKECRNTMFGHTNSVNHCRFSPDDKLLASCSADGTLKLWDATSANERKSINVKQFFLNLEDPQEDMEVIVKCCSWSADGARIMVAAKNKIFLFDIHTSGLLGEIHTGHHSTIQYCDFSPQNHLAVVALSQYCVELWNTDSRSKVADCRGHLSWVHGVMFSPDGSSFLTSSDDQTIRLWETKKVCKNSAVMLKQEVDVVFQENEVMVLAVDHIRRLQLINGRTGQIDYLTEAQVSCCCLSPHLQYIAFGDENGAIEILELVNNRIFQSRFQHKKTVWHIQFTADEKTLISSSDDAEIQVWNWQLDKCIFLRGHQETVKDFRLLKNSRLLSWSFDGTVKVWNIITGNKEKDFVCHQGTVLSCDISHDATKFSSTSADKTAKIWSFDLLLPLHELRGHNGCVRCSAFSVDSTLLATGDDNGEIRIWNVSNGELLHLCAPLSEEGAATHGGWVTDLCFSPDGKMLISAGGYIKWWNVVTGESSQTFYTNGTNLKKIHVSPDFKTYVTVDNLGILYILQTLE
- Type: functional
The source made the active and inactive calls.
endpoint: IC50

-- ask Reported IC50 for `Cc1ccc(NC2=C(N3CCOCC3)C(=O)c3ccccc3C2=O)cc1` : what is it?
-- reply 19.4 µM (active)

-- ask Reported IC50 for `CCN1CCN(C2=C(NS(=O)(=O)c3ccccc3)C(=O)c3ccccc3C2=O)CC1` : what is it?
-- reply 19.1 µM (active)

-- ask Reported IC50 for `CCN(CC(=O)Nc1ccccc1OC)C(=O)c1ccccc1Sc1ccccc1C#N` : what is it?
-- reply > 100 µM (inactive)

-- ask Reported IC50 for `COc1ccc(C[C@H]2CN3C(=NC[C@H]3Cc3ccccc3)N2CCNC(=O)c2ccc(C)c(Br)c2)cc1` : what is it?
-- reply > 100 µM (inactive)

-- ask Reported IC50 for `COc1cc2nc(N3CCNCC3)nc(N)c2cc1OC` : what is it?
-- reply 31.5 µM (active)

-- ask Reported IC50 for `CN(C)S(=O)(=O)c1ccc2oc(SCC(=O)Nc3ccccc3F)nc2c1` : what is it?
-- reply 7.98 µM (active)

-- ask Reported IC50 for CCC(C)NC(=O)c1c(N)n(CC2CCCO2)c2nc3ccccc3nc12 (stereo not drawn) : what is it?
-- reply 18.8 µM (active)

-- ask Reported IC50 for `O=C1C(c2ccccc2)=[N+]([O-])c2ccccc21` : what is it?
-- reply 5.8 µM (active)
